Values compiled from paper PMC7822874.

- method: in vitro
- assay.setup: human, HepG2 cells; n = 1
Parameter: CC50 at 48 h. Scope: all listed entries.
attribute.measured: CC50 at 48 h (µM)

1) CCN1CCN(c2ccc(Nc3ccnc4ccccc34)cc2)CC1; 17.2
2) N=c1ccn(Cc2ccc(Cl)cc2Cl)cc1; 19.3
3) CC1=CC(=CNNC(=O)c2n[nH]cc2Br)C(=O)C=C1; 19.3
4) O=C1Nc2ccccc2C1=NN=C(S)N1CCOCC1; 15.3
5) Cc1nn2c(NCc3ccccn3)cc(C(C)C)nc2c1-c1ccccc1; 12.2
6) CCCCC(=O)NC(c1ccc(C(C)C)cc1)c1ccc2cccnc2c1O (centres unmarked); 15.3
7) O=C1C=CC(Cl)=CC1=CNNC(=O)c1ccncc1; 12.2
8) O=C1C(Nc2ccccc2)=C/C(=N\S(=O)(=O)c2cccs2)c2ccccc21; 12.2
9) COc1ccc(-c2nc(CC3CCN(C(=O)c4n[nH]c(=O)c5ccccc45)C3)no2)cc1 (centres unmarked); 19.3
10) Cc1c(NN=C(C#N)C(=O)c2ccccc2)c(=O)n(-c2ccccc2)n1C; 12.2
11) COc1ccccc1CNC[C@@H]1C=C(C)[C@H](Cc2nc3cccc(C)c3[nH]2)C[C@H]1C(C)C; 44.4
12) O=C1c2ccccc2C(=O)c2[nH]c(=O)[nH]c21; 10.9
13) Fc1ccc(Nc2nc3nonc3nc2Nc2cccc(C(F)(F)F)c2)cc1; 4.32
14) Oc1cc(Nc2ccc(N3CCCCC3)cc2)cc2cccnc12; 17.2
15) COc1cnc(-c2ccccn2)nc1N(C)c1ccccc1; 13.7
16) CC(NNC(=O)C12CCC(C)(C(=O)O1)C2(C)C)=C1C=CC=CC1=O (centres unmarked); 12.2
17) Cc1cc(Nc2sc(C(=O)c3ccc(F)cc3)c(N)c2C(=O)Nc2ccc(F)cc2)ccc1Cl; 2.73
18) FC(F)(F)c1cccc(Nc2nc3nonc3nc2Nc2ccc(Cl)cc2)c1; 3.85
19) Nc1nc(-c2ccccn2)nc(N)c1Cc1ccc(Cl)cc1Cl; 13.7
20) O=C(Nc1ccc(Cl)cc1)c1nc2c(o1)CCN(Cc1cccc(O)c1)CC2; 17.7
21) CCOCc1cc(CN2CCN(c3ccccc3OC)CC2)c(O)c2ncccc12; 9.68
22) CCCOC(=O)c1[nH]c2c(c1C)C(=O)CC(c1cc(OC)c(OC)c(OC)c1)C2 (centres unmarked); 21.7
23) COc1ccc(Nc2cc(O)c3ncccc3c2)cc1; 19.3
24) Cc1ccc(NCC(=O)Nc2cccc(F)c2)cc1S(=O)(=O)N1CCCCCC1; 27.3
25) O=C(NNc1ccnc2cc(Cl)ccc12)C1CCCCC1; 12.2
26) CCCOc1ccc(C(=O)Nc2ccc(-c3cc4ccccc4oc3=O)c(C)c2)cc1; 24.3
27) COc1ccc2[nH]c(C[C@@H]3C[C@@H](C(C)C)[C@H](CNCc4ccccn4)C=C3C)nc2c1; 7.03
28) O=C(NC(c1ccccc1)c1cc(Cl)c2cccnc2c1O)c1cccnc1 (centres unmarked); 13.7
29) CCOC(=O)c1c(C)[nH]c2c1-c1ccccc1C(=O)C2=O; 10.9
30) O=C(CCl)Nc1cccc(-c2cnc3ccccc3n2)c1; 13.7
31) CCn1c(C)nc2cc(-c3nc4n(n3)Cc3ccccc3-4)ccc21; 12.2
32) Cc1ccc(Nc2nc3nonc3nc2Nc2cccc(C(F)(F)F)c2)cc1Cl; 4.32
33) O=C(Cc1ccccc1F)N1CC(Oc2ccc(-c3noc(-c4cccnc4)n3)cc2)C1; 19.3
34) Cc1cc(NCc2ccccn2)n2nc(C)c(-c3ccc(Cl)cc3)c2n1; 9.68
35) O=C(Nc1ccc(Br)cc1)c1ccc(F)c([S+](=O)([O-])NC2CCCCCC2)c1; 13.7

* * *

Parameter: HepG2 viability signal, 1 uM, repeat 2. Scope: all listed entries.
- Tested on: HepG2-A16-CD81EGFP cells
- assay.setup: nominal 1 uM (10 mM stock); […] for 15 mM, 1.2 uM for 12 mM, 2 uM for 20 mM stock; average of 2 wells; repeat 2
attribute.measured: HepG2 viability signal, 1 uM, repeat 2 (%)

1. CCN1CCN(Cc2c(O)ccc3c(=O)c(Oc4ccccc4C(C)C)c(C(F)(F)F)oc23)CC1; 96.13
2. CCN1CCN(C(=O)c2ccc3c(c2)N(Cc2ccccc2F)C(=O)c2ccccc2[S+]3[O-])CC1 (centres unmarked); 95.20
3. Cc1ccc2oc(=O)c3cnn(CC(=O)Nc4cccc(C(F)(F)F)c4)c3c2c1; 99.44
4. COc1ccc(-c2noc(-c3cccn3CC(=O)Nc3cccc(Cl)c3C)n2)cc1F; 99.09
5. O=C(Nc1ccc2c(N3CCOCC3)ncnc2c1)c1ccc(Br)o1; 103.01
6. CCOC(=O)c1ccc2c(c1)[C@@H]1C=CC[C@@H]1[C@H](c1cccc(OC)c1OC)N2; 100.32
7. COc1ccccc1NC(=O)N1CCOc2ccc(CN3CCc4ccccc4C3)cc2C1; 96.28
8. COc1ccc(C2C=C(c3ccc(Cl)cc3)Nc3nc(-c4ccc(Cl)cc4)nn32)cc1 (centres unmarked); 96.07
9. C[C@H]1[C@@H]2[C@H]3OC(=O)[C@@H](C)[C@@H]3CC[C@@]2(C)CC[C@@H]1NC(=O)CC(C)(C)C; 102.40
10. COc1ccc(CN[C@@H]2C=C[C@@H](c3c(C)nn(-c4ccc(OC)cc4)c3C)C2)cc1; 96.20
11. CCC(CC)c1cc([C@H]2CN3CC[C@H]2C[C@@H]3CNC(=O)COc2ccccc2)nc(-c2ccncc2)n1; 97.05
12. O=C(Nc1ccc2c(N3CCCC3)ncnc2c1)c1cccc(F)c1; 97.92
13. COc1ccc(CN2CCCC3(C2)C(NC2CCCCC2)=NC(=O)N3c2cc(F)cc(F)c2)cc1 (centres unmarked); 102.91
14. COc1cc(C(=O)NC2CCCc3c2[nH]c2c(Cl)cccc32)cc(OC)c1OC (centres unmarked); 98.86
15. Cn1nnnc1SCCCNCc1cccc(OCc2ccccc2)c1; 101.95
16. CN1CCN(c2ccc3ncc(Nc4ccccc4-c4ccccc4)n3n2)CC1; 97.22
17. CCCCCn1c(=N)n(CC(O)COc2cccc(C)c2)c2ccccc21 (centres unmarked); 100.99
18. COc1cccc(C2C(C(=O)Nc3ccc(C)cc3C)=C(C)Nc3c(C(=O)Nc4ccccc4)cnn32)c1 (centres unmarked); 98.62
19. Cc1ccc(CN2COc3cc(C)c4c(oc(=O)c5ccccc54)c3C2)cc1; 104.57
20. CC1=C[C@@H](CNCc2cccnc2)[C@H](C(C)C)C[C@H]1Cc1nnc(-c2ccc([N+](=O)[O-])cc2)o1; 102.23
21. COc1ccccc1CN1COc2ccc3c(oc(=O)c4ccccc43)c2C1; 104.93
22. O=C(Nc1ccc2c(N3CCCC3)ncnc2c1)c1cccc(Br)c1; 101.29
23. COc1ccc(-c2noc(-c3cccn3CC(=O)Nc3ccc(C)cc3Cl)n2)cc1F; 100.81
24. Oc1ccc(CN2CC(CNc3ccccc3)C3(C2)CN(c2ccccc2)C3)cc1 (centres unmarked); 101.59
25. COc1ccc2[nH]c(C[C@@H]3C[C@@H](C(C)C)[C@H](CNCc4ccccc4OC)C=C3C)nc2c1; 98.07
26. Cc1nn2c(c1-c1ccccc1-c1ccccc1)N(Cc1ccc(O)cc1)CCC2; 99.38
27. CCN1CCN(c2cc(C)c3cc(NC(=O)c4cc(OC)c(OC)c(OC)c4)ccc3n2)CC1; 103.37
28. Cc1ccc(C)c(Cn2c(=O)n(CCCCC(=O)NCc3ccc4c(c3)OCO4)c(=O)c3ccccc32)c1; 102.61
29. O=C(O)c1ccc(-c2nc3cnccc3[nH]2)cc1; 104.68
30. CCOc1ccccc1CN1CCCN(Cc2ccncc2)C(c2ccccc2)CC(=O)NCC1 (centres unmarked); 96.74
31. Cc1ccc(C)c(Oc2c(C(F)(F)F)oc3c(CN4CCN(C)CC4)c(O)ccc3c2=O)c1; 106.86
32. O[C@H]1CC[C@@H](Cc2cc(-c3ccc(F)cc3)on2)O[C@@H]1CNC1CCCCC1; 105.13

* * *

- method: in vitro
- assay.setup: human, HepG2-A16-CD81EGFP cells, uninfected
Parameter: viability at 48 h, 1 µM. Scope: all listed entries.
attribute.measured: viability at 48 h, 1 µM (%)

1. CCSc1nnc(SCC(=O)c2c(N)n(C)c(=O)n(C)c2=O)s1; 93
2. CCOC(=O)c1c[nH]c2c3c(ccc2c1=O)CCCC3; 98
3. Cc1cn(-c2cc(C(=O)Nc3ccc(C)c(NC(=O)C(=O)c4c[nH]c5ccccc45)c3)cc(C(F)(F)F)c2)cn1; 112
4. Cc1cc(N2CCN(C3CCCCC3)CC2)nc2cccc(O)c12; 104
5. Cc1ccc2c(c1)-c1c(ssc1=S)C(C)(C)N2C(=O)c1ccco1; 100
6. CCc1cccc2sc(N3CCN(C(=O)c4ccc([N+](=O)[O-])o4)CC3)nc12; 106
7. CCOC(=O)c1c(C)oc2c1C(=O)c1ccccc1C2=O; 105
8. N=c1n(CCN2CCCCC2)c2ccccc2n1CC(O)COc1ccc(Cl)cc1Cl (centres unmarked); 103
